# System: HOP-92 NSCLC
# ASSAY_METHOD_TEXT: NCI-60 one-dose screen, 48 h (100 = growth as untreated, 0 = no growth, -100 = all killed)
# STATED_CONDITIONS: 10 µM unless noted
The panel holds about 83,000 compounds, 20% with a hit somewhere; the sample as a whole holds those more often.
Define the label as Condition met when growth is strictly less than 50% and as Condition not met in all remaining cases.

Study these solved cases before continuing.
INSERT INTO assay_data (molecule, tgt, assigned_class) VALUES
  ('Nc1ncnc2c1ncn2C1OC(COC(c2ccccc2)(c2ccccc2)c2ccccc2)C(O)C1O (stereo not given)', 'HOP-92 NSCLC', 'Condition not met'),
  ('CCOc1ccccc1C(=O)N1CCN(c2cc(Cl)cc(Cl)c2)CC1', 'HOP-92 NSCLC', 'Condition met');

Criterion: growth strictly below 50%. Is it met by COc1ccc(-c2nnc(NC(=O)CN3CCN(c4cc5c(cc4F)c(=O)c(C(=O)O)cn5C4CC4)CC3)s2)cc1OC ? Condition not met

Criterion: growth strictly below 50%. Is it met by CCCC(C)(C)COC(=O)c1cccc(N)c1 ? Condition not met

Criterion: growth strictly below 50%. Is it met by C[C@H]1C=C(C[C@@H](O)CCCCCCCCCC[C@@H](O)[C@H]2CCC(=O)O2)C(=O)O1 ? Condition not met

Criterion: growth strictly below 50%. Is it met by Cc1ccc(-c2nc3c(N=Nc4ccc(S(N)(=O)=O)cc4)c(N)nn3c(N)c2C#N)cc1 ? Condition met

Criterion: growth strictly below 50%. Is it met by O=C(Nc1cccc(-n2ccc3c(NC(=O)c4ccccc4)nccc32)c1)Nc1cc(C(F)(F)F)cc(C(F)(F)F)c1 ? Condition met

Criterion: growth strictly below 50%. Is it met by Cc1ccc2c(C3C(C#N)=C(N)Oc4cc5ccccc5cc43)cc(=O)oc2c1 (stereo not given) ? Condition not met

Criterion: growth strictly below 50%. Is it met by O=c1nc(N2CCOCC2)oc2c(-c3cccc4ccccc34)cccc12 ? Condition not met

Criterion: growth strictly below 50%. Is it met by COc1ccc(C(=O)NC(=O)Nc2ccc3c(c2)NC(=O)/C3=C\c2[nH]c(C)c(CCC(=O)O)c2C)c(F)c1 ? Condition not met

Criterion: growth strictly below 50%. Is it met by O=c1c2ccccc2sc2c(NCCCNCCO)nc3ccccc3c12 ? Condition met

Criterion: growth strictly below 50%. Is it met by N#Cc1c(N)nc2c(c1N)C(c1ccc(Cl)cc1)C1=C(CCCC1=O)N2c1sc2c(c1C#N)CCCC2 (stereo not given) ? Condition not met

Criterion: growth strictly below 50%. Is it met by CC(=S)Nc1ccccc1 ? Condition not met

Criterion: growth strictly below 50%. Is it met by C=C1C(=O)O[C@H]2[C@H]1CC/C(COC(=O)c1cc(OC)c(OC)c(OC)c1)=C\CC[C@@]1(C)O[C@@H]21 ? Condition met

Criterion: growth strictly below 50%. Is it met by Nc1n[nH]c2cccc(C#Cc3cccc(NC(=O)c4cccc(C(F)(F)F)c4)c3)c12 ? Condition met

Criterion: growth strictly below 50%. Is it met by COc1ccc(-c2cc3ccc(N(C)C)cc3nc2N)c(F)c1 ? Condition met

Criterion: growth strictly below 50%. Is it met by CCOC(=O)c1noc2c1CCc1c-2cn(Cc2ccc(OC)cc2)c1-c1cc(OC)c(OC)c(OC)c1 ? Condition not met

Criterion: growth strictly below 50%. Is it met by CCOC(=O)n1cnc2c(Cl)ncnc21 ? Condition not met
